# credit: patent US20140179681A1

Biological target: EGFR (Homo sapiens, UniProt P00533)
Construct: host or cells: A431
Sequence (P00533 25-1210): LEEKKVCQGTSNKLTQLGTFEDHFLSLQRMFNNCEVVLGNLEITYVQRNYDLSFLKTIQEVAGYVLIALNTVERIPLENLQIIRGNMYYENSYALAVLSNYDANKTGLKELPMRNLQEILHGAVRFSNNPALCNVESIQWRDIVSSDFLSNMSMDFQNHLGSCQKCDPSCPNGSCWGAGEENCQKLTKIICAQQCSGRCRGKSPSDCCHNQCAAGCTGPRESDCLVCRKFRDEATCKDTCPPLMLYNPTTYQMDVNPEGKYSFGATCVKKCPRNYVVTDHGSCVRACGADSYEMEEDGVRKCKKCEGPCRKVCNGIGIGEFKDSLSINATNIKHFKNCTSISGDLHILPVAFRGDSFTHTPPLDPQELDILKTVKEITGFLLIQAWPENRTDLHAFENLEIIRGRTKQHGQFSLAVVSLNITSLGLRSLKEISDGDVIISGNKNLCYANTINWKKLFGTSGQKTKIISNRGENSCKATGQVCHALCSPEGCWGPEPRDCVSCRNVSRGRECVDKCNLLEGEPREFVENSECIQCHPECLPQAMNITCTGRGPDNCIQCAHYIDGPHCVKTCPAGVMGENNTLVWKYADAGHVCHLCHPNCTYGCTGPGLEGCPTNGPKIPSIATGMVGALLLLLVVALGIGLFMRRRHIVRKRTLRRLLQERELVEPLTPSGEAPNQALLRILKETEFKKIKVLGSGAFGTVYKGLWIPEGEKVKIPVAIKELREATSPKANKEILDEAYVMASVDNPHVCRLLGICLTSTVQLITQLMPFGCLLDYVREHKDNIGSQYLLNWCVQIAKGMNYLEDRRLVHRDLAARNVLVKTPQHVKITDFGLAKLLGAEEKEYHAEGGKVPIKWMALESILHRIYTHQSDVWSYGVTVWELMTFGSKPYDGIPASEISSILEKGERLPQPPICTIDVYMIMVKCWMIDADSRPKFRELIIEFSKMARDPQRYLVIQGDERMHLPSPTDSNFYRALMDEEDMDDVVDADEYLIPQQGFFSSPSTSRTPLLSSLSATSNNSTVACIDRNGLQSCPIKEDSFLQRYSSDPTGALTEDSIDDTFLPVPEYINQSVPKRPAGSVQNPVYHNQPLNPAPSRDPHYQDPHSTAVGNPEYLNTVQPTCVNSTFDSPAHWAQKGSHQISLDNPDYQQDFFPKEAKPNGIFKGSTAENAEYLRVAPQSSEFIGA
Experiment: EGFR in-cell Western (ICW) screening protocol (EGFR inhibition assay)
Assay type: cell-based
Parameters: unit not given here
Settings: ICW assay, run 2
Where a name gives a salt, the structure may show the parent alone.
Assign Yes to entries whose ICW 2 meets or exceeds 30; assign No to the rest.

1. CCc1c(C)nc(Nc2nc(C)c3cccc(OC)c3n2)[nH]c1=O [12738 + TFA]
Yes
2. CCCCCc1c(C)nc(Nc2nc(C)c3cc(CC)ccc3n2)[nH]c1=O [12226 + TFA]
Yes
3. COc1ccc2nc(Nc3nc(C)c(CCC(C)C)c(=O)[nH]3)nc(C)c2c1
Yes
4. CCc1ccc2nc(Nc3nc(C)c4c(n3)CCCC4)nc(C)c2c1
No
5. Cc1ccc2c(C)nc(Nc3nc(C)cc(=O)[nH]3)nc2c1 [11725 + TFA]
Yes

Query block: Check this molecule for ICW 2 at or above 30: Cc1ccc2nc(Nc3nc(C)c(CCC(C)C)c(=O)[nH]3)nc(C)c2c1 [12666 + TFA]
Result block: No

Query block: Check this molecule for ICW 2 at or above 30: CCCc1cc(=O)[nH]c(Nc2nc(C)c3ccc(OC)cc3n2)n1 [AD4-12652 + TFA]
Result block: Yes

Query block: Check this molecule for ICW 2 at or above 30: CCOC(=O)c1c(N)nc(Nc2nc(C)c3cc(C)ccc3n2)nc1-c1ccccc1 [compound 12681]
Result block: Yes

Query block: Check this molecule for ICW 2 at or above 30: CCCc1c(-c2ccccc2)nc(Nc2nc(C)c3ccccc3n2)[nH]c1=O [compound 12609]
Result block: Yes

Query block: Check this molecule for ICW 2 at or above 30: CCCc1c(C)nc(Nc2nc(C)c3cccc(C)c3n2)[nH]c1=O [12625 + TFA]
Result block: Yes

Query block: Check this molecule for ICW 2 at or above 30: Cc1ccc(SCc2cc(=O)[nH]c(Nc3nc(C)c4cc(C)cc(C)c4n3)n2)cc1 [11727 + TFA]
Result block: No

Query block: Check this molecule for ICW 2 at or above 30: CCOc1ccc2nc(Nc3nc(C)c(CCC(C)C)c(=O)[nH]3)nc(C)c2c1 [12684 + TFA]
Result block: No

* * *

Biological target: EGFR (Homo sapiens, UniProt P00533)
Construct: host or cells: A431
Assay: EGFR in-cell Western (ICW) screening protocol (EGFR inhibition assay);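 on ICW Screen (ICW Inhibition): compound at 125 µM in assay in A431 cells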
Format: cell-based
Entries get a class label from measured ICW Screen (ICW Inhibition). See ranges: low value = under 30, medium value = from 30 up to 40, high value = 40 and over

Please review the entries below; each comes with its answer.
1) O=C(NC(=S)Nc1ccc(S(=O)(=O)Nc2ccccc2)cc1)C1CC1 [AD4-11413]
high value
2) Cc1cc(C)cc(NS(=O)(=O)c2ccc(NC(=S)NC(=O)CCc3ccccc3)cc2)c1 [AD4-12139]
high value
3) COc1cc(NS(=O)(=O)c2ccc(NC(=S)NC(=O)/C=C/c3cccs3)cc2)nc(OC)n1 [AD4-11881]
medium value

Query block: Which category fits this record: CC(C)C(=O)NC(=S)Nc1ccc(S(=O)(=O)N2CCCC2)cc1 [AD4-11970]
Result block: high value

Query block: Which category fits this record: Cc1cc(NS(=O)(=O)c2ccc(NC(=S)NC(=O)/C=C/c3ccccc3)cc2)no1 [AD4-12273]
Result block: medium value

Query block: Which category fits this record: COc1ccc(CC(=O)NC(=S)Nc2ccc(S(=O)(=O)Nc3nc(C)cc(C)n3)cc2)cc1 [AD4-11395]
Result block: low value

Query block: Which category fits this record: Cc1cc(NS(=O)(=O)c2ccc(NC(=S)NC(=O)/C=C/c3cccs3)cc2)no1 [AD4-11863]
Result block: low value

Query block: Which category fits this record: COc1ccc(/C=C/C(=O)NC(=S)Nc2ccc(S(=O)(=O)Nc3cc(OC)nc(OC)n3)cc2)cc1 [AD4-11645]
Result block: high value

Query block: Which category fits this record: COc1ccc(NS(=O)(=O)c2ccc(NC(=S)NC(=O)CCC(=O)OCCc3ccccc3)cc2)cc1 [AD4-12149]
Result block: medium value

Query block: Which category fits this record: Cc1cc(C)nc(NS(=O)(=O)c2ccc(NC(=S)NC(=O)C3CCCC3)cc2)n1 [AD4-12163]
Result block: low value

Query block: Which category fits this record: CCc1nnc(NS(=O)(=O)c2ccc(NC(=S)NC(=O)/C=C/c3ccc(C)cc3)cc2)s1 [AD4-11879]
Result block: low value

Query block: Which category fits this record: CC1CCN(S(=O)(=O)c2ccc(NC(=S)NC(=O)C(C)C)cc2)CC1 [AD4-11977]
Result block: medium value

Query block: Which category fits this record: COc1ccccc1/C=C/C(=O)NC(=S)Nc1ccc(S(=O)(=O)N2CCN(C)CC2)cc1 [AD4-12265]
Result block: medium value

* * *

System: epithelial carcinoma A431 cell line
Test: MTT Cell Proliferation Assay, A431 cells
Format: cell-based
Conditions: Homo sapiens, A-431, A431 cells, first value of cell; read-out: MTT Assay IC50(A431/MDBK): A431
Where a name gives a salt, the structure may show the parent alone.
# IC50 values compiled below

Take a look at these entries with their results.
1) CCOC(=O)c1c(N)nc(Nc2nc(C)c3cc(OC)ccc3n2)nc1-c1ccccc1
15.1 µM
2) CCCc1c(C)[nH]c(Nc2nc(C)c3cc(C)ccc3n2)nc1=O
43.1 µM
3) CCCc1c(C)nc(Nc2nc(C)c3cc(C)c(C)cc3n2)[nH]c1=O [12614 + TFA]
19.4 µM

Next up:
Query block: Give the measured IC50 of Cc1ccc2nc(Nc3nc(C)cc(C(F)(F)F)n3)nc(C)c2c1 [11816 + TFA] .
Result block: 14.2 µM

* * *

Target: EGFR (Homo sapiens, UniProt P00533)
Construct: host or cells: A431
Assay: EGFR in-cell Western (ICW) screening protocol (EGFR inhibition assay)
Format: cell-based
Design: unit not given here
Conditions: ICW assay, run 1
Structures can show the parent of a compound that is named as a salt.
readout-kind: ICW 1
// keep it numeric: no unit symbol after the value

Take a look at these entries with their results.
1. Cc1ccc2nc(Nc3nc(CSc4nc5ccccc5s4)cc(=O)[nH]3)nc(C)c2c1
24.41
2. Cc1nc(Nc2nc(C(C)C)cc(=O)[nH]2)nc2c(C)cccc12
24.37
3. CCCc1c[nH]c(Nc2nc(C)c3ccccc3n2)nc1=O [compound 12662]
21.64
4. Cc1ccc2c(O)nc(Nc3nc(C)cc(-c4ccccc4)n3)nc2c1 [12693 + TFA]
40.36
5. O=c1[nH]c(Nc2nc(-c3ccccc3)c3cc(Cl)ccc3n2)nc2ccccc12 [11706 + TFA]
37.65

Query block: Give the measured ICW 1 of CCOc1ccc2nc(Nc3nc(C)cc(-c4ccccc4)n3)nc(C)c2c1 [12688 + TFA] .
Result block: 45.86

Query block: Give the measured ICW 1 of Cc1ccc2c(C)nc(Nc3nc(-c4ccccc4C)cc(=O)[nH]3)nc2c1 .
Result block: 77.05

Query block: Give the measured ICW 1 of Cc1ccc2nc(Nc3nc(=O)cc(CSc4ccc(Cl)cc4)[nH]3)nc(C)c2c1 [11826 + TFA] .
Result block: 40.52

* * *

System: MDBK line
Test: MTT Cell Proliferation Assay, MDBK cells
Type: cell-based, bovine
Conditions: Bos taurus, MDBK, second value of 'a/b (c)'; taken as MDBK cells; read-out: MTT Screen, second value of cell
IC50 strictly under 20 µM means 1 (yes); at 20 µM or over means 0 (no).

Please review the entries below; each comes with its answer.
1) Cc1ccc(NS(=O)(=O)c2ccc(NC(=S)NC(=O)C(C)C)cc2)cc1C
1 (yes)
2) COc1cc(NS(=O)(=O)c2ccc(NC(=S)NC(=O)/C=C/c3ccccc3)cc2)nc(OC)n1
0 (no)
3) COc1ccc(CC(=O)NC(=S)Nc2ccc(S(=O)(=O)Nc3ccc(C)c(C)c3)cc2)cc1
1 (yes)
4) COc1ccc(NS(=O)(=O)c2ccc(NC(=S)NC(=O)CCC(=O)OCCc3ccccc3)cc2)cc1
0 (no)
5) CC(C)CC(=O)NC(=S)Nc1ccc(S(=O)(=O)NCCc2ccccc2)cc1
1 (yes)

Query block: Determine if CC1CCN(S(=O)(=O)c2ccc(NC(=S)NC(=O)CCC(=O)OCCc3ccccc3)cc2)CC1 shows IC50 strictly lower than 20 µM.
Result block: 0 (no)

Query block: Determine if CC(C)C(=O)NC(=S)Nc1ccc(S(=O)(=O)NC2CCCCC2)cc1 shows IC50 strictly lower than 20 µM.
Result block: 0 (no)

Query block: Determine if O=C(NC(=S)Nc1ccc(S(=O)(=O)Nc2ccccc2)cc1)c1ccco1 shows IC50 strictly lower than 20 µM.
Result block: 0 (no)

Query block: Determine if COc1ccc(OCC(=O)NC(=S)Nc2ccc(S(=O)(=O)Nc3cc(C)cc(C)c3)cc2)cc1 shows IC50 strictly lower than 20 µM.
Result block: 1 (yes)

Query block: Determine if COc1ccccc1/C=C/C(=O)NC(=S)Nc1ccc(S(=O)(=O)Nc2nc(C)cc(C)n2)cc1 shows IC50 strictly lower than 20 µM.
Result block: 0 (no)

Query block: Determine if COc1ccc(CC(=O)NC(=S)Nc2ccc(S(=O)(=O)NCCc3ccccc3)cc2)cc1 shows IC50 strictly lower than 20 µM.
Result block: 1 (yes)

Query block: Determine if C=CCN(CC=C)S(=O)(=O)c1ccc(NC(=S)NC(=O)/C=C/c2cccs2)cc1 shows IC50 strictly lower than 20 µM.
Result block: 1 (yes)

Query block: Determine if Cc1cc(C)nc(NS(=O)(=O)c2ccc(NC(=S)NC(=O)COc3ccc(Br)cc3Cl)cc2)n1 shows IC50 strictly lower than 20 µM.
Result block: 1 (yes)

Query block: Determine if COc1ccc(NS(=O)(=O)c2ccc(NC(=S)NC(=O)C(C)C)cc2)cc1 shows IC50 strictly lower than 20 µM.
Result block: 0 (no)
